Provenance of the data: patent US20110028442A1

# target.desc: human adrenergic β2 receptor (Homo sapiens, UniProt P07550)
# Construct: purchased Perkin Elmer; host or cells: Sf9 cells
# Sequence (P07550 whole entry): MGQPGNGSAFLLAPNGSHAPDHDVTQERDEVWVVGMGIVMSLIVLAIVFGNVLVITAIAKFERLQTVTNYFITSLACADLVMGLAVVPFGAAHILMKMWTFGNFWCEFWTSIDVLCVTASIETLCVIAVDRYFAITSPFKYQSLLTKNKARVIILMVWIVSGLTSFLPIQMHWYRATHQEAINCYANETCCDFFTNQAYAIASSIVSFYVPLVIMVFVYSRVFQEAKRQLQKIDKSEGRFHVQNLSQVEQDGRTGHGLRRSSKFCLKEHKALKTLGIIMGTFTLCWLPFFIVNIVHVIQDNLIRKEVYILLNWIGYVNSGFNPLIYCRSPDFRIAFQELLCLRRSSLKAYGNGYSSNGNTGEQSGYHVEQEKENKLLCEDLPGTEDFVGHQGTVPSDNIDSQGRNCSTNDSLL
# measurement.notes: Human adrenergic β2 receptor binding assay (3H-CGP12177, Sf9 membranes)
# test.context: ratio of human β1 IC50 to human β2 IC50
Known β1/β2 ratio of a selection of compounds
Hey, just send me the number, nothing else.

O=C(NCCc1ccccc1)Nc1cccc(CCNCC(O)c2ccc(O)c3[nH]c(=O)ccc23)c1 (stereo not shown)    1.4
O=C(NCc1c(Cl)cccc1Cl)Nc1cccc(CCNCC(O)c2ccc(O)c3[nH]c(=O)ccc23)c1 (stereo not shown)    13
O=C(Nc1cccc(CCNC[C@H](O)c2ccc(O)c3[nH]c(=O)ccc23)c1)NC(c1ccccc1)c1ccccc1    4.6

Given C[C@@H](Cc1cccc(NC(=O)Nc2ccccc2-c2ccccc2)c1)NC[C@H](O)c1ccc(O)c2[nH]c(=O)ccc12 , state its recorded β1/β2 ratio. 9.1
